# Target Or Test System: recombinant human NaV1.8 stably transfected HEK cells (Homo sapiens, UniProt Q9Y5Y9)
# Construct: expressed in transfected cells; host or cells: HEK cells, stably transfected
# Sequence (Q9Y5Y9 whole entry): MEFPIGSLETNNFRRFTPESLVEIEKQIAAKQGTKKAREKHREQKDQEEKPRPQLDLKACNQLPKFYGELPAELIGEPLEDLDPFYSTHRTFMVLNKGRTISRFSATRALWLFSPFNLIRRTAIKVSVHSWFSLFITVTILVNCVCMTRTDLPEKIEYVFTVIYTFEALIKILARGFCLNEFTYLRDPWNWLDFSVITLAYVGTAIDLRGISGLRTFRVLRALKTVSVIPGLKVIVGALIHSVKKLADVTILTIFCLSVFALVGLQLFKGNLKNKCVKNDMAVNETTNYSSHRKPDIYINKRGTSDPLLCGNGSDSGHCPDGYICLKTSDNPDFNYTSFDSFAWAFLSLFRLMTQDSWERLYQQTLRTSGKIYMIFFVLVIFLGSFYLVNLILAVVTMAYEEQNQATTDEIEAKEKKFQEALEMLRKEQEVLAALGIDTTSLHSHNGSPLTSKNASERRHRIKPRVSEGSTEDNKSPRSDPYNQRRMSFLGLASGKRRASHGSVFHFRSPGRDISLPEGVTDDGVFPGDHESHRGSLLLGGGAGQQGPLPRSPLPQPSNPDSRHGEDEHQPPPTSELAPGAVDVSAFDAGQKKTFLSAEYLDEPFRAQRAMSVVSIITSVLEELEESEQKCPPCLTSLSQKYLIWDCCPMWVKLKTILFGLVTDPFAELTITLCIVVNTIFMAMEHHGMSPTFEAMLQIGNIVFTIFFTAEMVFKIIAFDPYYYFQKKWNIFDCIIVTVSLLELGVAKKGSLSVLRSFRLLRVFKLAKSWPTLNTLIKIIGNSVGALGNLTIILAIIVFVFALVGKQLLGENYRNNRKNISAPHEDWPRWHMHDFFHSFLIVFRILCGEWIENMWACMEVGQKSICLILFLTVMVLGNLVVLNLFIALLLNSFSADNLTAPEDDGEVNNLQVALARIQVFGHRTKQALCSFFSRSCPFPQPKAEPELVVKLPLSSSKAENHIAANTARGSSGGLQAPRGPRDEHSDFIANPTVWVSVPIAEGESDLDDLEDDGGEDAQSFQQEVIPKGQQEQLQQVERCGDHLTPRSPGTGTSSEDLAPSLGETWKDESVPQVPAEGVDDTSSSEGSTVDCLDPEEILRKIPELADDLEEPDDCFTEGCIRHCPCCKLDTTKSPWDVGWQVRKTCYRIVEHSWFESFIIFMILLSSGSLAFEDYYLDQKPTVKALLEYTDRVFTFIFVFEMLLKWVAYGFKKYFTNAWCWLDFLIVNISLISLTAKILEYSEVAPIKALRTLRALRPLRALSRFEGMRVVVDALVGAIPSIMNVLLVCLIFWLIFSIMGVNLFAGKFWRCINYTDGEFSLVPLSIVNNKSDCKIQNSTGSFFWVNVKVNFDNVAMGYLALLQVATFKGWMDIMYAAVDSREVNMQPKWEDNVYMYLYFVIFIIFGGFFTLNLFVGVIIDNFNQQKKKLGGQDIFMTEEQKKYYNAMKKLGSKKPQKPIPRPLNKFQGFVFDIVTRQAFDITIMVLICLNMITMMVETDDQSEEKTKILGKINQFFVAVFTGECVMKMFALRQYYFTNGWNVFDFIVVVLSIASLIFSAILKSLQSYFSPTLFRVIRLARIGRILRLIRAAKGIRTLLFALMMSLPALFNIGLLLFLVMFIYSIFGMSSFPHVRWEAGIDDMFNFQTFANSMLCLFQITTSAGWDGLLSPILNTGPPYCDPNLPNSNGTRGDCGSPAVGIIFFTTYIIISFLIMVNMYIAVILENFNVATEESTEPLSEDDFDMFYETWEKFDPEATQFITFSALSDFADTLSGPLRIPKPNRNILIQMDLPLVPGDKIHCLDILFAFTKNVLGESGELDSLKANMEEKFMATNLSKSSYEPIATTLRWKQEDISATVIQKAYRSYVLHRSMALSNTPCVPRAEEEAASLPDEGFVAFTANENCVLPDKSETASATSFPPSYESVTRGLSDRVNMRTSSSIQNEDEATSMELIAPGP
# Assay Notes: Compound profiling on NaV1.8, human NaV1.8 cell line, SyncroPatch384PE automated patch clamp assay (Example 102, first set of compounds, Table 16)
# Assay type: cell-based
# Measurement Context: resting state block (P1 measurement), human NaV1.8 HEK cells, Table 16 (first set of compounds), read-out: P1IC50
# Description: Compound Profiling on NaV1.8—Human NaV1.8 Cell Line—SyncroPatch384PE Assay Compounds were tested on recombinant human NaV1.8 stably transfected HEK cells using the SyncroPatch384PE system, an automated patch clamp device. […] Compounds were tested in triplicate in 0.1% DMSO and 0.030% Pluronic Acid. […] Compounds were then applied by the SynchroPatch into each well and the current was recorded for five minutes in EC, followed by application of tetracaine to achieve full block at the end of the experiment. […]
pIC50: −log10 of the molar value.
Documented pIC50 across a set of compounds
Value Kind: pIC50

INSERT INTO assay_data (compound, target_or_test_system, result_value) VALUES
  ('Cc1nc(C#N)ccc1Oc1ncc(C(F)(F)F)cc1C(=O)Nc1cccc(S(C)(=O)=O)c1 [Compound 1693]', 'recombinant human NaV1.8 stably transfected HEK cells (Homo sapiens, UniProt Q9Y5Y9)', '≥ 7.70'),
  ('COc1c(Oc2nnc(C(F)(F)F)c(C)c2C(=O)Nc2cccc(S(C)(=O)=O)c2)ccc(F)c1F [Compound 1425]', 'recombinant human NaV1.8 stably transfected HEK cells (Homo sapiens, UniProt Q9Y5Y9)', '≥ 7.70'),
  ('COC(=O)C12CC(NC(=O)c3cc(C(F)(F)F)cnc3Oc3ccc(C#N)cc3OC)(C1)C2 [Compound 1678]', 'recombinant human NaV1.8 stably transfected HEK cells (Homo sapiens, UniProt Q9Y5Y9)', '6.30 to 6.70'),
  ('CC(C#N)Oc1cc(F)c(Oc2ncc(C(F)(F)F)cc2C(=O)Nc2cccc(C(N)=O)c2)cc1F (centres unmarked) [Compound 1687]', 'recombinant human NaV1.8 stably transfected HEK cells (Homo sapiens, UniProt Q9Y5Y9)', '6.30 to 6.70'),
  ('COc1cc(F)c(F)cc1Oc1ncc(C(F)(F)F)cc1C(=O)Nc1cccc(S(C)(=O)=O)c1 [Compound 1615]', 'recombinant human NaV1.8 stably transfected HEK cells (Homo sapiens, UniProt Q9Y5Y9)', '≥ 7.70'),
  ('Cc1nc(F)ccc1Oc1ncc(C(F)(F)F)c(C)c1C(=O)Nc1cccc([S@@](C)(=N)=O)c1 [Compound 1560]', 'recombinant human NaV1.8 stably transfected HEK cells (Homo sapiens, UniProt Q9Y5Y9)', '≥ 7.70'),
  ('CSc1cccc(NC(=O)c2cc(C#N)cnc2Oc2ccc(F)cc2C)c1 [Compound 1579]', 'recombinant human NaV1.8 stably transfected HEK cells (Homo sapiens, UniProt Q9Y5Y9)', '6.30 to 6.70'),
  ('Cc1c(C(F)(F)F)nnc(Oc2ccc(OC(F)(F)F)c(F)c2F)c1C(=O)Nc1cccc(S(C)(=N)=O)c1 (single isomer, unassigned) [Compound 1477]', 'recombinant human NaV1.8 stably transfected HEK cells (Homo sapiens, UniProt Q9Y5Y9)', '≥ 7.70'),
  ('NC(=O)c1ccc(NC(=O)c2cc(C(F)(F)F)cnc2OC2CC3C(C2)C3(F)F)cc1 (centres unmarked) [Compound 1673]', 'recombinant human NaV1.8 stably transfected HEK cells (Homo sapiens, UniProt Q9Y5Y9)', '6.30 to 6.70'),
  ('COc1ccc(Oc2ncc(C(F)(F)F)cc2C(=O)Nc2cccc(S(C)(=N)=O)c2)cc1C#N (centres unmarked) [Compound 1591]', 'recombinant human NaV1.8 stably transfected HEK cells (Homo sapiens, UniProt Q9Y5Y9)', '6.30 to 6.70'),
  ('CS(=O)(=O)c1cccc(NC(=O)c2cc(C(F)(F)F)cnc2Oc2ccc(OC(F)F)cc2)c1 [Compound 1563]', 'recombinant human NaV1.8 stably transfected HEK cells (Homo sapiens, UniProt Q9Y5Y9)', '7.40 to 7.70'),
  ('CC(C)Oc1ccc(Oc2ncc(C(F)(F)F)cc2C(=O)Nc2cccc(S(C)(=N)=O)c2)c(F)c1 (centres unmarked) [Compound 1706]', 'recombinant human NaV1.8 stably transfected HEK cells (Homo sapiens, UniProt Q9Y5Y9)', '6.30 to 6.70'),
  ('COC(=O)c1cccc(NC(=O)c2c(Oc3ccc(C#N)cc3OC)nnc(C(F)(F)F)c2C)c1 [Compound 1546]', 'recombinant human NaV1.8 stably transfected HEK cells (Homo sapiens, UniProt Q9Y5Y9)', '6.70 to 7.40'),
  ('COc1cc(C#N)ccc1Oc1nnc(-c2cnc(C(F)(F)F)s2)c(C)c1C(=O)Nc1cccc(S(C)(=N)=O)c1 (centres unmarked) [Compound 1459]', 'recombinant human NaV1.8 stably transfected HEK cells (Homo sapiens, UniProt Q9Y5Y9)', '≥ 7.70'),
  ('CS(=O)(=O)c1cccc(NC(=O)c2cc(C(F)(F)F)cnc2OC2CCOC2)c1 (centres unmarked) [Compound 1662]', 'recombinant human NaV1.8 stably transfected HEK cells (Homo sapiens, UniProt Q9Y5Y9)', '6.30 to 6.70'),
  ('CC(C#N)Oc1cc(F)c(Oc2ncc(C(F)(F)F)cc2C(=O)Nc2cccc(S(C)(=N)=O)c2)cc1F (centres unmarked) [Compound 1689]', 'recombinant human NaV1.8 stably transfected HEK cells (Homo sapiens, UniProt Q9Y5Y9)', '6.70 to 7.40'),
  ('CS(=N)(=O)c1cccc(NC(=O)c2cc(C(F)(F)F)cnc2Oc2cccnc2OC(F)(F)F)c1 (single isomer, unassigned) [Compound 1643]', 'recombinant human NaV1.8 stably transfected HEK cells (Homo sapiens, UniProt Q9Y5Y9)', '≥ 7.70'),
  ('Cc1cc(F)ccc1Oc1ncc(C(F)(F)F)cc1C(=O)Nc1cccc([S@@](C)(=O)=NC(=O)CN(C)C(=O)OC(C)(C)C)c1 [Compound 1719]', 'recombinant human NaV1.8 stably transfected HEK cells (Homo sapiens, UniProt Q9Y5Y9)', '≥ 7.70'),
  ('COc1cc(F)c(Oc2ncc(C(F)(F)F)cc2C(=O)Nc2cccc(C(N)=O)c2)cc1F [Compound 1638]', 'recombinant human NaV1.8 stably transfected HEK cells (Homo sapiens, UniProt Q9Y5Y9)', '6.30 to 6.70'),
  ('COc1c(Oc2nnc(C(F)(F)F)c(C)c2C(=O)Nc2cccc(S(C)(=N)=O)c2)ccc(Cl)c1F (single isomer, unassigned) [Compound 1490]', 'recombinant human NaV1.8 stably transfected HEK cells (Homo sapiens, UniProt Q9Y5Y9)', '≥ 7.70'),
  ('COc1cc(C#N)ccc1Oc1nnc(C(F)(F)F)c(C)c1C(=O)Nc1cccc(S(N)(=O)=O)c1 [Compound 1418]', 'recombinant human NaV1.8 stably transfected HEK cells (Homo sapiens, UniProt Q9Y5Y9)', '≥ 7.70'),
  ('Cc1c(Oc2ncc(C(F)(F)F)cc2C(=O)Nc2cccc(S(C)(=N)=O)c2)ccc(OC(F)(F)F)c1F (single isomer, unassigned) [Compound 1714]', 'recombinant human NaV1.8 stably transfected HEK cells (Homo sapiens, UniProt Q9Y5Y9)', '≥ 7.70'),
  ('Cc1cc(F)ccc1Oc1nnc(C(C)O)c(C)c1C(=O)Nc1cccc(S(C)(=N)=O)c1 (centres unmarked) [Compound 1547]', 'recombinant human NaV1.8 stably transfected HEK cells (Homo sapiens, UniProt Q9Y5Y9)', '6.30 to 6.70'),
  ('COc1c(Oc2ncc(C(F)(F)F)cc2C(=O)Nc2cccc(S(C)(=N)=O)c2)ccc(F)c1F (centres unmarked) [Compound 1630]', 'recombinant human NaV1.8 stably transfected HEK cells (Homo sapiens, UniProt Q9Y5Y9)', '≥ 7.70'),
  ('CSc1cccc(NC(=O)c2c(Oc3ccc(C#N)cc3C)nnc(C(F)(F)F)c2C)c1 [Compound 14]', 'recombinant human NaV1.8 stably transfected HEK cells (Homo sapiens, UniProt Q9Y5Y9)', '6.30 to 6.70'),
  ('COc1cc(C#N)ccc1Oc1ncc(C2CCOCC2)cc1C(=O)Nc1cccc(S(C)(=N)=O)c1 (centres unmarked) [Compound 1727]', 'recombinant human NaV1.8 stably transfected HEK cells (Homo sapiens, UniProt Q9Y5Y9)', '6.30 to 6.70'),
  ('Cc1cc(F)ccc1Oc1nnc(C(F)(F)F)c(C)c1C(=O)Nc1cccc(S(C)(=N)=O)c1 (centres unmarked) [Compound 20]', 'recombinant human NaV1.8 stably transfected HEK cells (Homo sapiens, UniProt Q9Y5Y9)', '≥ 7.70'),
  ('Cc1c(C(F)(F)F)nnc(Oc2ccc(OC3CCC3)c(F)c2F)c1C(=O)Nc1cccc(S(C)(=O)=O)c1 [Compound 1426]', 'recombinant human NaV1.8 stably transfected HEK cells (Homo sapiens, UniProt Q9Y5Y9)', '≥ 7.70'),
  ('CS(=N)(=O)c1cccc(NC(=O)c2cc(C(F)(F)F)cnc2Oc2ccc(OC(F)F)c(F)c2)c1 (centres unmarked) [Compound 1644]', 'recombinant human NaV1.8 stably transfected HEK cells (Homo sapiens, UniProt Q9Y5Y9)', '≥ 7.70');
